- experimental system: alpha 2C adrenergic receptor (Homo sapiens, UniProt P18825)
- Construct: expressed in transfected cells; host or cells: NIH-3T3 cells, transient cotransfection by calcium phosphate
- Sequence (P18825 whole entry, species assumed): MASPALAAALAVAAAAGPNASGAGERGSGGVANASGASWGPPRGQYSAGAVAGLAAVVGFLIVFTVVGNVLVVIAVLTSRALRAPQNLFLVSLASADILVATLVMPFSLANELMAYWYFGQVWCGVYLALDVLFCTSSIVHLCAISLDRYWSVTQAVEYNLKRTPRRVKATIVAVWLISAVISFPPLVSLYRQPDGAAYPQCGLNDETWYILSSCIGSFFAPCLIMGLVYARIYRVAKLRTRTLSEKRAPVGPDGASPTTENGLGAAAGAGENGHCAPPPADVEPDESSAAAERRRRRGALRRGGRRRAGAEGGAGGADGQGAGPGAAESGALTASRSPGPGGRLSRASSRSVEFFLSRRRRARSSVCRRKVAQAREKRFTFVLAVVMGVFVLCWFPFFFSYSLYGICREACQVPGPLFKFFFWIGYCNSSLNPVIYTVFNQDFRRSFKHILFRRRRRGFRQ
- run description: RSAT (Receptor Selection and Amplification Technology) assay, alpha 2C
- Type: cell-based
- condition info: NIH-3T3 cells cotransfected with receptor and Gq/i5
measured attribute: EC50 (nM)
Record the value in nM, omitting the unit from your answer.

Record excerpt, results attached:
OCCNC(=S)NCc1cc(F)ccc1Br : 137
OCCNC(=S)NCc1c(F)cccc1F : 5060
CCOc1ccccc1CNC(=S)NCCO : 28
OCCNC(=S)NCc1cc(Br)cc(Br)c1F : 1410
OCCNC(=S)NCc1ccccc1Br : 273
Cc1cc(Cl)cc(CNC(=S)NCCO)c1F : 181
OCCNC(=S)NCc1cccc(Br)c1F : 41
OCCNC(=S)NCc1c(Cl)ccc(Cl)c1F : 1420

Consider the record given below.
Reported EC50, compound COc1ccc(F)cc1CNC(=S)NCCO : ____
45
